// values below are reported chromatographic logD
method_description: CHI Log D procedure
Type: physicochemical
run_parameters: pH 7.4, CHI Log D
Note: the reply should be a number with no unit written.

CC(=O)N1CCC[C@]12CC=CCCCC1(CCCC=CCCCOC(=O)N3CC[C@@](C(=O)N[C@@H](Cc4ccccc4Cl)C(=O)N[C@@H](Cc4csc5ccccc45)C(=O)N[C@@H](CO)C(N)=O)(C3)NC(=O)[C@H](CC(C)C)NC(=O)[C@H](Cc3ccccc3)NC(=O)[C@H](C)NC(=O)[C@H](C)NC(=O)[C@H](CC(=O)O)NC(=O)[C@H](CC(=O)O)NC1=O)NC(=O)[C@H](CC1CCCCC1)NC(=O)[C@H](CC(=O)O)NC2=O (stereo partly drawn) = 2.72
CC(=O)N1CCC[C@]12CC=CCCCC1(CCCC=CCCCOC(=O)N3CC[C@@](C(=O)N[C@@H](Cc4ccsc4)C(=O)N[C@@H](Cc4csc5ccccc45)C(=O)N[C@@H](CCC(N)=O)C(N)=O)(C3)NC(=O)[C@H](CC(C)C)NC(=O)[C@H](Cc3ccccc3)NC(=O)[C@H](C)NC(=O)[C@H](C)NC(=O)[C@H](Cc3ccc(C(=O)O)cc3)NC(=O)[C@H](CC(=O)O)NC1=O)NC(=O)[C@H](CC(C)(C)C)NC(=O)[C@H](CC(=O)O)NC2=O (stereo partly drawn) = 2.15

Quick one: chromatographic logD for CC(=O)N[C@@H](Cc1ccccc1)C(=O)N[C@@H](CC(=O)O)C(=O)N[C@@H](C)C(=O)N[C@]1(C)CCCCCCC=CCOC(=O)N2CC[C@@](C(=O)N[C@@H](Cc3ccccc3)C(=O)N[C@@H](Cc3c[nH]c4ccccc34)C(=O)N[C@@H](CCC(N)=O)C(N)=O)(C2)NC(=O)[C@H](C(C)C)NC(=O)[C@H](Cc2ccc(F)cc2)NC(=O)[C@H](C)NC(=O)[C@H](C)NC(=O)[C@H](CC(=O)O)NC(=O)[C@H](CC(=O)O)NC1=O ? 1.24
